The measurements presented in this section are drawn from patent US12595253B2.

Can you tell me microsomal CLint at 1 μM for the items I'm about to list?
# test: Liver microsomes study, Phase I stability (RLM)
# Assay type: in vitro ADME, rat
# measurement setup: pH 7.4; rat liver microsomes 0.5 mg/mL, 1 μM test article; read-out: RLM Clint
# Procedure: Commercially available liver microsomes (MsLM vendor: XENOTECH; RLM, DLM, MkL, HLM vendor: Corning) were used for study the Phase I stability of test articles. […] 80 μL of supernatant are taken into 96-well assay plates pre-added with 160 μL ultrapure water, and then analyzed by LC/MS/MS(Shimadzu LC30AD & API4000/API5000)). Concentrations of test articles, control compounds in the samples were determined by using LC/MS/MS) method. […]
The response must be a number in µL/min/mg with no trailing unit.

Quick one: microsomal CLint at 1 μM for Cc1cnc(Nc2cnn(C3CCN(C(=O)C4CC4)CC3)c2)nc1-c1ccc(C(=O)NCC2(C#N)CC2)cc1 [Example 158] ?
124

Quick one: microsomal CLint at 1 μM for Cc1cnc(Nc2cnn(C3CC(C)(C)OC(C)(C)C3)c2)nc1-c1ccc(C(=O)N[C@@H](C)C#N)cc1 [Example 173] ?
69.4

Quick one: microsomal CLint at 1 μM for Cc1cnc(Nc2cnn(C3CCOCC3)c2)nc1-c1ccc(C(=O)NCC2(C#N)CC2)cc1 [Example 37] ?
40.7

Quick one: microsomal CLint at 1 μM for C[C@@H](C#N)NC(=O)c1ccc(-c2nc(Nc3cnn(C4CCOCC4)c3)ncc2Cl)cc1 [Example 39] ?
27.5

Quick one: microsomal CLint at 1 μM for Cc1cnc(Nc2cnn(C3CC(C#N)C3)c2)nc1-c1ccc(C(=O)NCC#N)cc1 (stereo not shown) [Example 106] ?
38.4

Quick one: microsomal CLint at 1 μM for Cc1cnc(Nc2cnn(C3CC(C)(C)OC(C)(C)C3)c2)nc1-c1ccc(C(=O)NCC#N)cc1 [Example 113] ?
73.9
